Test: folding stability dG unfold from chymotrypsin proteolysis; higher = more stable
OBSERVABLE: folding stability dG unfold (kcal/mol)
Number in kcal/mol, nothing else.

SAGGSAGGSAGMFVERTLEITFVRPPNGPGPEEVEKRAKELQEKNPHLNVKVKVVDPSEASAGGSAGGSAGG [r17_220_JUSTAS]; 0.795
SAGGSMIFETLGSEKLIKEKAEERGLDLVEYSVEGNKFFALLKDPAGKLVLTYSDEASVKKLGLDLSKLSAG [r5_12_JUSTAS]; 0.523
SAGGSALVIKKVEPNKGYLVFESKEDDKPIVRVKLETLVAALEEDRIPPALRRLLAENPDQVFNPVSAGGSA [r15_359_TrMRF]; 1.75
SAGGSAGGVLRMVRRALKNGKNRPIVIYVPEPEQRNFIKWLKDEWPGIKIKVVPPDQMPPNQIISAGGSAGG [r6_87_TrROS]; 1.31
SAGMKEIKIKDAKIEVKKKKDGKKVKRITLKDGKEIEIKEDGSIIIRNKKTGKYIKLPKNMTIEELLKKSAG [r5_348_TrROS_Hall]; 1.74

Record SPNWKIVEITEMERTDGRVTIKIKIKVPDGRIYIFMPNGKIIEEVPLGDDVELTITFPPNNWPIYIFVLDSA [r9_917_TrROS] , field folding stability dG unfold: 4.69

Record SAGGSLTAEWDTSTGTVRLTFPDGSVVELPFPTSGAVVRATVDGDKVTIEVLDKDNPKVVARFTFDLGSAGG [r13_938_TrMRF] , field folding stability dG unfold: 4.74

Record SAGSTTRVVELPGNKRVEVEVSTVGDSLTFTITLRDEEGNPVKTLPVAVPDPSLPVEEAIAAAVAAFLASAG [r5_630_JUSTAS] , field folding stability dG unfold: 3.91

Record SAGGSAGGSAPDVEVEPFTLPSGEEAVAFRLPDGSRVVLVGDKAVLFYKDGKVEEVPLEEILSAGGSAGGSA [r18_379_TrMRF] , field folding stability dG unfold: 1.78

Record SAGGSAGGSAPPWTRVLGLGTFPPGVPDLPVEVPGGNVYALFTPTEDGSVQVLIVDLIPPLSAGGSAGGSAG [r3_464_TrMRF] , field folding stability dG unfold: 0.965

Record SAMKLVTLEDGTVIETENLSLEEIKERFGGGSISVSDVPPSPAFRVESEEEREALEKEVGPGFVVVEEGSAG [r14_445_JUSTAS] , field folding stability dG unfold: 0.108

Record SAGAAPGEPVVLVLPDGTVIPVIPRPDGSATLDAVAPSADGTYTVTASLPATGTTVTLELSAPPSFVAASAG [r5_394_TrMRF] , field folding stability dG unfold: 0.824

Record SAGGSAGGSAIKKTPNGKYLLKVTFTETYKDKKTGKTYKKTYTKTYVFDKKTNKWKSAEELSAGGSAGGSAG [r3_394_TrROS_Hall] , field folding stability dG unfold: 3.12

Record SAGGKYVMFPFDSPEDLKDLLPPGYPVEIHMMPPKGKHRTRTFTPDEIKLELPPGENFYFMIKVKPPDSAGG [r13_461_TrROS] , field folding stability dG unfold: 1.94

Where do these numbers come from? They come from the supplement of paper PMC12764529.
